target: recombinant RORγ Ligand Binding Domain (LBD) protein (Homo sapiens (Human), UniProt P51449); assay: Radio-Ligand RORγ Binding Assay (Assay 1); details: competition with 25-hydroxy [26,27-3H]-cholesterol, SPA; Table 9; read-out: RORγ Binding Ki Range*
Sequence (P51449 269-508): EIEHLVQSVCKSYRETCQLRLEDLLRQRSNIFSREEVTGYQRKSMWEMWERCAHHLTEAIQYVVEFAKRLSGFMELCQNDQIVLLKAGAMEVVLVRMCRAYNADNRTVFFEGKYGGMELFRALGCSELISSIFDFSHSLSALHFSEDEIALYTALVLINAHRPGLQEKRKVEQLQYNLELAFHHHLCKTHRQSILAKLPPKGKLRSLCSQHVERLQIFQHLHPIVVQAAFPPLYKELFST
pKi: −log10 of the molar value.
Catalogue of compounds with associated pKi
observable: pKi

>  <compound>
CCS(=O)(=O)c1ccc(CC(=O)Nc2nc3c(s2)CN(c2ncc(C(C)=O)c(C(F)(F)F)n2)[C@H]3C(C)C)cc1

>  <observable>
pKi

>  <measured>
> 7.00

$$$$
>  <compound>
CC(C)[C@H]1c2nc(NC(=O)Cc3ccc(Cl)cc3)sc2CN1Cc1ccc(Cl)cc1

>  <observable>
pKi

>  <measured>
> 7.00

$$$$
>  <compound>
CCS(=O)(=O)c1ccc(CC(=O)Nc2nc3c(s2)CN(C[C@@H]2CC[C@H](C(F)(F)F)NC2)[C@H]3C(C)C)cc1 (single isomer, unassigned)

>  <observable>
pKi

>  <measured>
> 7.00

$$$$
>  <compound>
CC(C)[C@@H]1c2nc(NC(=O)Cc3ccc(S(C)(=O)=O)cc3)sc2CN1Cc1ccc(Cl)cc1

>  <observable>
pKi

>  <measured>
6.00 to 7.00

$$$$
>  <compound>
CCS(=O)(=O)c1ccc(CC(=O)Nc2nc3c(s2)CN([C@H](C)c2ccccc2)[C@@H]3C(C)C)cc1 (single isomer, unassigned)

>  <observable>
pKi

>  <measured>
> 7.00

$$$$
>  <compound>
CCS(=O)(=O)c1ccc(CC(=O)Nc2nc3c(s2)CN(C[C@H]2CC[C@@H](C(F)(F)F)O2)[C@H]3C(C)C)nc1 (single isomer, unassigned)

>  <observable>
pKi

>  <measured>
> 7.00

$$$$
>  <compound>
CCS(=O)(=O)c1ccc(CC(=O)Nc2nc3c(s2)CN(c2ncc(CO)c(C(F)(F)F)n2)[C@H]3C(C)C)cc1

>  <observable>
pKi

>  <measured>
6.00 to 7.00

$$$$
>  <compound>
CC(C)[C@H]1c2nc(NC(=O)Cc3ccc(S(C)(=O)=O)cc3)sc2CN1Cc1ccn(C2CC2)c(=O)c1

>  <observable>
pKi

>  <measured>
6.00 to 7.00

$$$$
>  <compound>
CC(C)[C@H]1c2nc(C(=O)NCc3ccc(S(C)(=O)=O)cc3)sc2CN1Cc1ccc(C(F)(F)F)cc1

>  <observable>
pKi

>  <measured>
> 7.00

$$$$
>  <compound>
CCS(=O)(=O)c1ccc(CC(=O)Nc2nc3c(s2)CN(Cc2ccn(C(F)F)c(=O)c2)[C@H]3C(C)C)cc1

>  <observable>
pKi

>  <measured>
> 7.00

$$$$
>  <compound>
CC(C)[C@H]1c2nc(NC(=O)Cc3ccc(S(C)(=O)=O)cc3)sc2CN1Cc1ccc(=O)n(C(F)F)n1

>  <observable>
pKi

>  <measured>
< 6.00

$$$$
>  <compound>
CCS(=O)(=O)c1ccc(CC(=O)Nc2nc3c(s2)CN(Cc2ccc(C(N)=O)cc2)[C@H]3C(C)C)cc1

>  <observable>
pKi

>  <measured>
> 7.00

$$$$
>  <compound>
CCS(=O)(=O)c1ccc(CC(=O)Nc2nc3c(s2)CN(C[C@H]2CC[C@](OC)(C(F)(F)F)CC2)[C@H]3C(C)C)nc1 (single isomer, unassigned)

>  <observable>
pKi

>  <measured>
> 7.00

$$$$
>  <compound>
CC(C)[C@H]1c2nc(C(=O)NCc3ccc(S(C)(=O)=O)cc3)sc2CN1Cc1ccc(C#N)cn1

>  <observable>
pKi

>  <measured>
6.00 to 7.00

$$$$
>  <compound>
CCS(=O)(=O)c1ccc(CC(=O)Nc2nc3c(s2)CN(C[C@H]2CC[C@H](C(F)(F)F)N(C4CC4)C2)[C@H]3C(C)C)cc1 (single isomer, unassigned)

>  <observable>
pKi

>  <measured>
> 7.00

$$$$
>  <compound>
CCS(=O)(=O)c1ccc(CC(=O)Nc2nc3c(s2)CN(C[C@H]2CC[C@](O)(C(F)(F)F)CC2)[C@H]3C(C)C)cc1 (single isomer, unassigned)

>  <observable>
pKi

>  <measured>
> 7.00

$$$$
>  <compound>
CCS(=O)(=O)c1ccc(CC(=O)Nc2nc3c(s2)CN(c2nc4cccnc4s2)[C@H]3C(C)C)cc1

>  <observable>
pKi

>  <measured>
> 7.00

$$$$
>  <compound>
CCS(=O)(=O)c1ccc(CC(=O)Nc2nc3c(s2)CN(C[C@@H]2CC[C@H](C(F)(F)F)NC2)[C@H]3C(C)C)nc1 (single isomer, unassigned)

>  <observable>
pKi

>  <measured>
> 7.00

$$$$
>  <compound>
CC(C)[C@H]1c2nc(NC(=O)Cc3ccc(S(C)(=O)=O)cc3)sc2CN1[C@@H](C)c1ccc(C#N)c(F)c1 (single isomer, unassigned)

>  <observable>
pKi

>  <measured>
> 7.00

$$$$
>  <compound>
CCS(=O)(=O)c1ccc(CC(=O)Nc2nc3c(s2)CN(Cc2cc(OC)cc(OC)c2)[C@@H]3C(C)C)cc1

>  <observable>
pKi

>  <measured>
> 7.00

$$$$
>  <compound>
CCS(=O)(=O)c1ccc(CC(=O)Nc2nc3c(s2)CN(CC2CCOCC2)[C@@H]3C(C)C)cc1

>  <observable>
pKi

>  <measured>
6.00 to 7.00

$$$$
>  <compound>
CCS(=O)(=O)c1ccc(CC(=O)Nc2nc3c(s2)CN(Cc2ccc(OC(F)F)cc2)[C@@H]3C(C)C)cc1

>  <observable>
pKi

>  <measured>
> 7.00

$$$$
>  <compound>
CCS(=O)(=O)c1cnc(CC(=O)Nc2nc3c(s2)CN(Cc2ccc(C#N)cc2)[C@@H]3C(C)C)nc1

>  <observable>
pKi

>  <measured>
< 6.00

$$$$
>  <compound>
CCS(=O)(=O)c1ccc(CNC(=O)c2nc3c(s2)CN(Cc2ccn(C(F)F)c(=O)c2)[C@H]3C(C)C)cc1

>  <observable>
pKi

>  <measured>
6.00 to 7.00

$$$$
>  <compound>
CCS(=O)(=O)c1ccc(CC(=O)Nc2nc3c(s2)CN(Cc2c(F)cc(C#N)cc2F)[C@H]3C(C)C)cc1

>  <observable>
pKi

>  <measured>
> 7.00

$$$$
>  <compound>
CCc1ccc(CN2Cc3sc(NC(=O)Cc4ccc(S(C)(=O)=O)cc4)nc3[C@H]2C(C)C)cc1

>  <observable>
pKi

>  <measured>
> 7.00

$$$$
>  <compound>
CC(C)[C@H]1c2nc(NC(=O)Cc3ccc(S(C)(=O)=O)cc3)sc2CN1[C@H](C)c1ccc(Cl)cn1 (single isomer, unassigned)

>  <observable>
pKi

>  <measured>
> 7.00

$$$$
>  <compound>
CC(C)[C@H]1c2nc(C(=O)NCc3ccc(S(C)(=O)=O)cc3)sc2CN1Cc1ccc(C#N)cc1F

>  <observable>
pKi

>  <measured>
> 7.00

$$$$
>  <compound>
CCS(=O)(=O)c1ccc(CC(=O)Nc2nc3c(s2)CN(Cc2cccc(C(F)(F)F)c2)[C@@H]3C(C)C)cc1

>  <observable>
pKi

>  <measured>
> 7.00

$$$$

// data source = patent US9868748B2
